Reported values of IC50 for individual entries
Molecular target: Jarid1A (Homo sapiens, UniProt P29375)
Sequence (P29375 1-1090): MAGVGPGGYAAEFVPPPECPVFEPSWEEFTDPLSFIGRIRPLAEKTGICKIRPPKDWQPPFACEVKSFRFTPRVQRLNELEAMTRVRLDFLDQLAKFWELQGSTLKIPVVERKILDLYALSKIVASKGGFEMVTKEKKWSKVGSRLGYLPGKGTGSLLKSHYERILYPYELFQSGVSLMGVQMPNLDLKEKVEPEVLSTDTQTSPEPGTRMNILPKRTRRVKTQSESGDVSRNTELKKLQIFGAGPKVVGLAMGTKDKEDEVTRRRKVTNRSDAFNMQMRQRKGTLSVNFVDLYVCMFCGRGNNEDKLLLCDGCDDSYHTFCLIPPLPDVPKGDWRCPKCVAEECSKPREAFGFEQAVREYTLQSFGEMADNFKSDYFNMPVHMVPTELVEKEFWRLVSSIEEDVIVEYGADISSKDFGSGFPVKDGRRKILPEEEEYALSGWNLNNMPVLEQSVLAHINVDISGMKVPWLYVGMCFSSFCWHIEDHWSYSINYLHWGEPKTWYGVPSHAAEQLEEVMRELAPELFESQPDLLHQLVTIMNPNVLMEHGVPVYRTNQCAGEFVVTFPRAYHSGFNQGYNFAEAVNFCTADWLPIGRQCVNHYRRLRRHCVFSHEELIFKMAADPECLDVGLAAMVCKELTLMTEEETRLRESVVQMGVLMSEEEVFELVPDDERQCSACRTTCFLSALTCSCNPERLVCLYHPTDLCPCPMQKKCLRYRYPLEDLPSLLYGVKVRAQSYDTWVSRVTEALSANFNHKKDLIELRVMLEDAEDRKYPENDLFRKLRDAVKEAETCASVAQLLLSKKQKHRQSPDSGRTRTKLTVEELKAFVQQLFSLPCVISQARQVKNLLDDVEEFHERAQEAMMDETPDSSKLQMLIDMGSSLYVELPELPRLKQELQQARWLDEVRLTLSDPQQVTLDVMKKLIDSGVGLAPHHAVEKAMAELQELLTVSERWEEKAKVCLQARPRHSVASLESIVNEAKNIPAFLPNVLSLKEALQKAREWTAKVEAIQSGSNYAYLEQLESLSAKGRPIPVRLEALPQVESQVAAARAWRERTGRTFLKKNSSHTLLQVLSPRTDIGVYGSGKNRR

Challenge: Given C=CC(=O)N1CCC(n2cc(Oc3nc(O)c4ccncc4n3)cn2)CC1 , state its recorded IC50.
Response given: ≤ 100 nM

Challenge: If you can, please state the reported IC50 value of Cn1cnc(-c2nccc3c(O)nc(OCC4CCOCC4)nc23)c1 .
Response given: 100 to 1000 nM

Challenge: Name the reported IC50 value associated with the molecule Oc1nc(OCc2cccc(F)c2)nc2cnccc12
Response given: 1000 to 10000 nM
